- PROTOCOL: Measurement of brain and systemic concentration after oral administration
- Format: in vivo
- EXPERIMENTAL CONDITIONS: rat, brain; male wistar rats; oral 100 mg/kg; formulated in 100% PEG400; sampled at 3 h; read-out: brain concentration [B]
MEASURE: log10 of concentration at 3 h (log10 of the value in ng/g)
Please be aware that the numbers have been log10-transformed from concentration at 3 h in ng/g.

The cases that follow already have their log10 of concentration at 3 h on record.
[in] Determine from records and report log10 of concentration at 3 h for `Cc1ccc(-n2nccn2)c(C(=O)N2CCOC[C@H]2Cc2cccc(-n3nccn3)c2)c1F`
[out] 2.63

[in] State, in one line, measured log10 of concentration at 3 h of `COc1cc(C(=O)N2CCOC[C@H]2Cc2cccc(-n3nccn3)c2)c(-n2nccn2)cc1C`
[out] 2.94

[in] Provide one value: measured log10 of concentration at 3 h of `Cc1ccc(C(=O)N2CCOC[C@H]2Cc2cc(-n3nccn3)ccc2F)c(-n2nccn2)c1C`
[out] 2.82

[in] Consider the compound `Cc1ccc(C(=O)N2CCOC[C@H]2Cc2cccc(-n3nccn3)c2)c(-n2nccn2)c1` and give its recorded log10 of concentration at 3 h.
[out] 3.74

[in] Please report log10 of concentration at 3 h for the following compound: `Cc1ccc(-n2nccn2)c(C(=O)N2CCOC[C@H]2Cc2cccc(-n3cccn3)c2)c1F`
[out] 1.56

[in] Identify the reported log10 of concentration at 3 h for the following entry. `O=C(c1cc(Cl)ccc1-n1nccn1)N1CCOC[C@H]1Cc1cccc(-n2nccn2)c1`
[out] 3.27

Next:
[in] For the compound `Cc1cc(C(=O)N2CCOC[C@H]2Cc2cccc(-n3nccn3)c2)c(-n2nccn2)cc1C` , give its measured log10 of concentration at 3 h value.
[out] 1.77

[in] # return recorded log10 of concentration at 3 h for input `O=C(c1ccccc1-n1nccn1)N1CCOC[C@H]1Cc1cccc(-n2nccn2)c1`
[out] 4.08

[in] Tell us which log10 of concentration at 3 h value is on record for `Cc1ccc(-n2nccn2)c(C(=O)N2CCOC[C@H]2Cc2cccc(-n3nccn3)c2)c1`
[out] 1.66

[in] Recall and state the measured log10 of concentration at 3 h for `O=C(c1ccccc1-n1nccn1)N1CCOC[C@H]1Cc1cccc(-n2cccn2)c1` .
[out] 2.20
